For each of the compounds below, state its pIC50.
biological target: p97 (Homo sapiens, UniProt P55072)
Sequence (P55072 whole entry): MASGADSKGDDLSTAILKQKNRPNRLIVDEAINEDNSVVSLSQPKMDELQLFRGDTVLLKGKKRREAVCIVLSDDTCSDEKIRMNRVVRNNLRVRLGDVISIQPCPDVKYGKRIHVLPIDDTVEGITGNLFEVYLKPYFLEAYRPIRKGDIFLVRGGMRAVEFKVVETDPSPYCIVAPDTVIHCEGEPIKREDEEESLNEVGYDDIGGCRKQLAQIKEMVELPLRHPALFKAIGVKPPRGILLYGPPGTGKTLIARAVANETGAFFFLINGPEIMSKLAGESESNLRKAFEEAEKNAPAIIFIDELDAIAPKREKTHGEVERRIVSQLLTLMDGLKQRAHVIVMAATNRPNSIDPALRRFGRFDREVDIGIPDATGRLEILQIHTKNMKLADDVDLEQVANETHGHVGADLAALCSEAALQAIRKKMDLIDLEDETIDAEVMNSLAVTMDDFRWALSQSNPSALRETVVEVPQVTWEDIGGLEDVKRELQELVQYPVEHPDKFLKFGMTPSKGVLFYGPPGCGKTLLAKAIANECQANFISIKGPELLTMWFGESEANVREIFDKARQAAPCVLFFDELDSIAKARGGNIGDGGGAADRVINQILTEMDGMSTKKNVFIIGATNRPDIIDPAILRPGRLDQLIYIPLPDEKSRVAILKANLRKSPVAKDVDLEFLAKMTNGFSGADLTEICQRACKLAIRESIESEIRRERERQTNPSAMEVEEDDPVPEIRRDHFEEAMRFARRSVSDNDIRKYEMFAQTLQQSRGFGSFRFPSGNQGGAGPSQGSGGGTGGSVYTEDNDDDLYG
pIC50: −log10 of the molar value.

Please fill in: pIC50 reported for Cc1cc2c(C(=O)O)cccc2n1-c1nc2c(c(NCc3ccccc3)n1)COCC2 = > 7.52

Please fill in: pIC50 reported for NCc1cc2c(C(N)=O)cccc2n1-c1nc2c(c(NCc3ccccc3)n1)COCC2 = > 7.00

Please fill in: pIC50 reported for CNC(=O)c1cccc2c1cc(C)n2-c1nc2c(c(NCc3ccccc3)n1)COCC2 = > 7.00

Please fill in: pIC50 reported for COc1cccc2c1cc(C)n2-c1nc2c(c(NCc3ccccc3)n1)CNCC2 = > 6.00

Please fill in: pIC50 reported for Cc1cc2c(C(=O)NCCN(C)C)cccc2n1-c1nc2c(c(NCc3ccccc3)n1)COCC2 [compound 102] = > 6.00

Please fill in: pIC50 reported for COCCOc1cccc2c(NCc3ccccc3)nc(-n3c(CN)cc4ccccc43)nc12 = > 6.52

Please fill in: pIC50 reported for COCCOc1cc2c(C#N)cccc2n1-c1nc2c(c(NCc3ccccc3)n1)CCCC2 = > 7.52

Please fill in: pIC50 reported for NCc1cc2c(C(N)=O)cccc2n1-c1nc2c(c(NCc3ccccc3)n1)CCCC2 = > 7.52

Please fill in: pIC50 reported for Cc1cc2c(-c3nnn[nH]3)cccc2n1-c1nc2c(c(NCc3ccccc3)n1)CCCC2 = > 7.52

Please fill in: pIC50 reported for COc1nc2ccccc2n1-c1nc2c(c(NCc3ccccc3)n1)CCCC2 = > 7.00

Please fill in: pIC50 reported for COc1nc2c(C(N)=O)cccc2n1-c1nc2c(c(NCc3ccccc3)n1)CCCC2 = > 7.52

Please fill in: pIC50 reported for Cc1cc2c(C(=O)O)cccc2n1-c1nc2c(c(NCc3ccccc3)n1)CCCC2 = > 7.52

Please fill in: pIC50 reported for COc1cc2c(C(N)=O)cccc2n1-c1nc2c(c(NCc3ccccc3)n1)CNCC2 = > 6.00

Please fill in: pIC50 reported for COc1nc2c(C(N)=O)cccc2n1-c1nc2c(c(NCc3ccccc3)n1)COCC2 = > 7.52

Please fill in: pIC50 reported for Cc1cc2c(S(C)(=O)=O)cccc2n1-c1nc2c(c(NCc3ccccc3)n1)COCC2 = > 6.52

Please fill in: pIC50 reported for Cc1cc2c(C(N)=O)cccc2n1-c1nc2c(c(NCc3ccc(F)cc3)n1)COCC2 = > 7.00

Please fill in: pIC50 reported for Cc1cc2ccccc2n1-c1nc2c(c(NCc3ccccc3)n1)CCNC2 = > 6.52

====

For each of the molecules below, state its IC50.
target: p97 (Homo sapiens, UniProt P55072); assay: P97 ATPase biochemical assay (ADP Glo); conditions: 20 nM p97, 20 μM ATP, 37° C. 15 minutes

Please fill in: IC50 reported for Cc1cc2c(C(N)=O)cccc2n1-c1nc2c(c(NCc3ccccc3F)n1)COCC2 [compound 123] = < 100 nM

Please fill in: IC50 reported for Cc1cc2c(S(C)(=O)=O)cccc2n1-c1nc2c(c(NCc3ccccc3)n1)CCCC2 [compound 111] = < 100 nM

Please fill in: IC50 reported for Cc1cc2c(C(=O)O)cccc2n1-c1nc2c(c(NCc3ccccc3)n1)CNCC2 [compound 117] = < 100 nM

Please fill in: IC50 reported for CC(N)c1cc2ccccc2n1-c1nc2c(c(NCc3ccccc3)n1)CCCC2 (centres unmarked) [compound 22] = < 1000 nM

Please fill in: IC50 reported for COc1cccc2c(NCc3ccccc3)nc(-c3c(C)oc4ccccc34)nc12 [compound 16] = < 1000 nM

Please fill in: IC50 reported for Cc1cc2c(C(=O)N(C)C)cccc2n1-c1nc2c(c(NCc3ccccc3)n1)CCCC2 [compound 133] = < 1000 nM

Please fill in: IC50 reported for Cc1cc2c(C(=O)NCCN(C)C)cccc2n1-c1nc2c(c(NCc3ccccc3)n1)COCC2 [compound 84] = < 30 nM

Please fill in: IC50 reported for Cc1nc2c(C(N)=O)cccc2n1-c1nc2c(c(NCc3ccccc3)n1)CNCC2 [compound 83] = < 1000 nM

====

test: in vitro; settings: human, Caco-2, pH 7.4
assay.endpoint: Papp B→A at 90 min, 100 μM (nm/s)
Just the number please, in nm/s, no unit attached.

Please fill in: Papp B→A at 90 min, 100 μM reported for CC(C)NCC(O)COc1cccc2ccccc12 (stereo not shown) = 209

====

experiment: in vitro; settings: human, Caco-2, pH 7.4
assay.endpoint: Papp A→B at 90 min, 100 μM

Please fill in: Papp A→B at 90 min, 100 μM reported for CC(C)NCC(O)COc1cccc2ccccc12 (stereo not shown) = 28.5 ×10⁻⁶ cm/s

Taken from patent US9475824B2.
